Target: human serum albumin (HSA) (Homo sapiens, UniProt P02768)
Sequence (P02768 25-609): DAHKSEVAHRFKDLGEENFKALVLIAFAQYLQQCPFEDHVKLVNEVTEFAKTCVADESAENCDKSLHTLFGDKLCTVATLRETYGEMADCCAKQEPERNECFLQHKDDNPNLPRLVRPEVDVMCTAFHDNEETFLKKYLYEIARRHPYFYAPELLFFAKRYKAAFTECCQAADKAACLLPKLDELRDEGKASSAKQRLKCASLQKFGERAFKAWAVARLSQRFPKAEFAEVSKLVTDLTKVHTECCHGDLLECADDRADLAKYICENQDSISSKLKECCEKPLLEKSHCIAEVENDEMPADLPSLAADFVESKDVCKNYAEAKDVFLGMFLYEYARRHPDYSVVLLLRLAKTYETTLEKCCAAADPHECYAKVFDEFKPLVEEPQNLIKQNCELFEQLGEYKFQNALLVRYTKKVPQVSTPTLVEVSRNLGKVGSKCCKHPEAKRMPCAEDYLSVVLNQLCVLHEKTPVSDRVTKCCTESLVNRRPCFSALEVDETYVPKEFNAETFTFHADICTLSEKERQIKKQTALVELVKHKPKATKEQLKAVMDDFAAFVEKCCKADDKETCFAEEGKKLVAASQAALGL
Experiment: Fluorescence ligand titration of HSA: quenching of intrinsic protein (Trp214) fluorescence, fitted Kd, n and FRET efficiency
Settings: Kd, excitation 295 nm, IFE-corrected
Experimental: For absorbance and fluorescence, solutions of the ligand, protein, and protein‐ligand complexes at different concentrations were prepared using PBS 1x buffer. […] The fluorescence intensities of protein‐ligand complexes were corrected for inner‐filter effects based on the absorbance of the ligands at the excitation and emission wavelengths ( IDA,cor=IDA10^(Absex+Absem)/2 ).^[ [19] ^] The fluorescence of the ligands in the absence of HSA was also recorded at 100 µM concentration. […]
Quantity kind: Kd (µM)
# value in µM; strip the unit string

Entry O=C(O)COc1cccc2cccnc12 , Kd reported as 48.1
